Origin of values: PubChem BioAssay (EPA / NIEHS)

read-out: Glutathione S-Transferase (GSTA2), GSTA2 (gene 2939); experiment: LTEA_HepaRG_GSTA2: Life Technologies and Expression Analysis (LTEA) Assay for Glutathione S-Transferase (GSTA2) using HepaRG (AID 2283497); conditions: mRNA level, 48 h; actives raise or lower the signal
Active and inactive are the calls of the source. The calls were made as follows: active = hit-call score of the fitted dose curve at least 0.9, where 1 is the maximum; inactive = score below 0.9.
measured metric: AC50

# annotated cases, reported AC50 shown
| input smiles | experimental value |
| --- | --- |
| Oc1c(Cl)c(Cl)c(Cl)c(Cl)c1Cl | 3.87 µM (active) |
| CC(c1ccc(O)cc1)(c1ccc(O)cc1)c1ccc(O)cc1 | 37.3 µM (active) |
| CCCCCCCCCc1ccc(O)cc1 | inactive |
| Cc1ccccc1[N+](=O)[O-] | inactive |
| N#Cc1ccc(N(CC(N)=O)CC(F)(F)F)cc1C(F)(F)F | inactive |

Ask | Read off the recorded AC50 for CCC(C)(c1ccc(O)cc1)c1ccc(O)cc1
Reply | inactive

Ask | Using the record for CN(C)CCO , state its measured AC50.
Reply | inactive

Ask | Answer with the recorded AC50 for the molecule listed here: Clc1ccc(C(Cl)(Cl)Cl)cc1
Reply | inactive

Ask | Tell me its AC50 given Cc1cc(-c2ccc(N)c(C)c2)ccc1N as the entry.
Reply | inactive

Ask | Give AC50 for the following molecule: Nn1cnnc1
Reply | inactive

Ask | Tell me AC50 reported for CCCN(CCC)N=O
Reply | inactive

Ask | Tell me its AC50 given CO/C=C(/C(=O)OC)c1ccccc1COc1cccc(C(F)(F)F)n1 as the entry.
Reply | 9.29 µM (active)

Ask | Return value of AC50 for input C=CC(N)=O , no commentary.
Reply | inactive

Ask | Output measured AC50 for this item: CCCCCCOC(=O)c1ccccc1C(=O)OCCCCCC
Reply | inactive

Ask | Answer with the recorded AC50 of Oc1ccc(Cl)cc1Cl only.
Reply | inactive

====

experiment: Tanguay_ZF_120hpf_PFIN_legacy: (Legacy) Oregon State University Tanguay Lab 120 Hour Post-fertilization zebrafish Assay for Pectoral Fin Malformation (AID 2283648);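 also: each larva judged yes or no for fin defect by brightfield with dead larvae skipped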
Inconclusive results are not listed. Activity calls are given as the source filed them. The calls were made as follows: active = hit-call score of the fitted dose curve at least 0.9, where 1 is the maximum; inconclusive = response in the unintended direction; inactive = score below 0.9.
measured metric: outcome

Previously resolved entries follow.
| compound | outcome |
| --- | --- |
| O=S(=O)(O)C(F)(F)C(F)(F)C(F)(F)C(F)(F)C(F)(F)C(F)(F)F | inactive |
| CCC(C)c1cc([N+](=O)[O-])cc([N+](=O)[O-])c1O (stereo unspecified) | inactive |
| COS(=O)(=O)OC | inactive |
| Clc1ccc(C(c2ccccc2Cl)C(Cl)(Cl)Cl)cc1 (stereo unspecified) | inactive |
| Oc1c(Cl)c(Cl)c(Cl)c(Cl)c1Cl | inactive |

Then there is this compound:
Ask | Please supply the value of reported outcome for the item CC(C)(O)C(=O)Nc1ccc([N+](=O)[O-])c(C(F)(F)F)c1
Reply | inactive

====

target: human CYP2C9, CYP2C9 (gene 1559) (UniProt P11712); assay: NVS_ADME_hCYP2C9: NovaScreen (NVS) CYP450-related Enzyme Activity (ADME) Assay for human CYP2C9 (AID 2283108)
Sequence (P11712 whole entry, looked up): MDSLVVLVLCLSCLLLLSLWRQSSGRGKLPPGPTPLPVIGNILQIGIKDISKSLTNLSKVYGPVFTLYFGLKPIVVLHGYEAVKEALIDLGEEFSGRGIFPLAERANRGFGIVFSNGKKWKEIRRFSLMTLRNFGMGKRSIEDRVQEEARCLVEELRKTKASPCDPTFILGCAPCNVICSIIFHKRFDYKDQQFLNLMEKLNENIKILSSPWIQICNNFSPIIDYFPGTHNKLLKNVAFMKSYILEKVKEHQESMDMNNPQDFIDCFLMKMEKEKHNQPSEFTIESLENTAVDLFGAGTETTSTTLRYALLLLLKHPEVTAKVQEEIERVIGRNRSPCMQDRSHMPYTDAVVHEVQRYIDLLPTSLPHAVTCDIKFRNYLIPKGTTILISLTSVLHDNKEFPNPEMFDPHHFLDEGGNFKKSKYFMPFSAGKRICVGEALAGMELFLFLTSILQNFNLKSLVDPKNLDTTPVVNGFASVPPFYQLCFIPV
Inconclusive results are not listed. Activity calls are given as the source filed them. The calls were made as follows: active = hit-call score of the fitted dose curve at least 0.9, where 1 is the maximum; inconclusive = response in the unintended direction; inactive = score below 0.9.
Please answer using one outcome listed in True = active, False = inactive

| input smiles | target system | qualitative label |
| --- | --- | --- |
| NS(=O)(=O)C(F)(F)C(F)(F)C(F)(F)C(F)(F)C(F)(F)C(F)(F)C(F)(F)C(F)(F)F | human CYP2C9, CYP2C9 (gene 1559) (UniProt P11712) | True |
| Oc1ccc(C(c2ccc(O)cc2)(C(F)(F)F)C(F)(F)F)cc1 | human CYP2C9, CYP2C9 (gene 1559) (UniProt P11712) | True |

Ask | # lookup: test call for Nc1ccc(-c2ccc(N)cc2)cc1
Reply | True

Ask | I'd appreciate the recorded outcome for CCC(C)(CC)c1cc(NC(=O)c2c(OC)cccc2OC)on1 from this test.
Reply | True

Ask | Field: outcome | Entry: CC(C)(O)C(=O)Nc1ccc([N+](=O)[O-])c(C(F)(F)F)c1
Reply | False
